# assayed-system: T1, human Protein S (human, UniProt P07225 42-676)
# T1 sequence: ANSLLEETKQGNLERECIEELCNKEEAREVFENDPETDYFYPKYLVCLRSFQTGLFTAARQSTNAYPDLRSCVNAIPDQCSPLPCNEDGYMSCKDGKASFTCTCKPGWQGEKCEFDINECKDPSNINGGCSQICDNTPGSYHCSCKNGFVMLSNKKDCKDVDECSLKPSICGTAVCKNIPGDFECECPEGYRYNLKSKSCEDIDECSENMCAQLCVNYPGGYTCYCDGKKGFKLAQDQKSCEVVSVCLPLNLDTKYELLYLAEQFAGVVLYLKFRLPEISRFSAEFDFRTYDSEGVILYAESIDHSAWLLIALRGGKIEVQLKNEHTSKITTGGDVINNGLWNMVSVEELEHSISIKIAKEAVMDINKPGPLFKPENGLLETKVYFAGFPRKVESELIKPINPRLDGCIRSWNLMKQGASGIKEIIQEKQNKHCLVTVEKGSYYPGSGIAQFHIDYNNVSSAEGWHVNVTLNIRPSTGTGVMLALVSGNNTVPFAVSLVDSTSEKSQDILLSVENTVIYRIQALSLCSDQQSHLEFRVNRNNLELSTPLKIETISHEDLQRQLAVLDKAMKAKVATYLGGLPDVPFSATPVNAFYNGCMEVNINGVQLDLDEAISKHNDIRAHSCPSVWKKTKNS
# method-notes: cell-based or functional assay
measured-endpoint: CAT EC50 (nM)
Respond with the bare value in nM.

Take a look at these entries with their results.
| binder | CAT EC50 / nM |
| --- | --- |
| Ac-YGLVEAGWYDYNNDTYMEFT-NH2 [JBS3201] | 127 |
| Ac-YGLVSAGWYDYNFDHYMEFT-NH2 [JBS3196] | 155 |
| Ac-TGLVEAGWYDYNFDHYMEFT-NH2 [JBS3197] | 146 |
| Ac-TGLVEAGWYDYNFDTYREFT-NH2 [JBS3192] | 117 |

Note to self: CAT EC50 recorded for Ac-YGLVSAGWYDYNFDVYREFT-NH2 [JBS3191] was 147

Input Ac-TGLVSAGWYDYNFDVYTEFT-NH2 [JBS3189] . Output CAT EC50: 281

Reported CAT EC50 for Ac-TGLVSAGWYDYNNDTYREFT-NH2 [JBS3194] was 122
